Every entry's value here was drawn from ChEMBL document CHEMBL1158411.

Item-by-item account of bioavailability
# measurement-protocol: Bioavailability in rat
# Format: ADME, organism-based
# measurement-setup: in vivo
property-name: bioavailability

>  <smiles-data>
CCn1cc2c3c(cc(C(=O)N[C@@H](Cc4ccccc4)[C@H](O)CNCCC(F)(F)F)cc31)N(C)S(=O)(=O)CC2

>  <measurement>
13%

$$$$
>  <smiles-data>
CCc1cn2c3c(cc(C(=O)N[C@@H](Cc4ccccc4)[C@H](O)CNC4CC4)cc13)N(C)S(=O)(=O)CC2

>  <measurement>
17%

$$$$

###

# measurement-protocol: Ratio of steady sate drug level in brain to blood of mdr1a/b knockout mouse
# Assay type: ADME, tissue-based
Item-by-item account of Kp
property-name: Kp

>  <smiles-data>
CCn1cc2c3c(cc(C(=O)N[C@@H](Cc4ccccc4)[C@H](O)CNCCC(F)(F)F)cc31)N(C)S(=O)(=O)CC2

>  <measurement>
0.99

$$$$
>  <smiles-data>
CCc1cn2c3c(cc(C(=O)N[C@@H](Cc4ccccc4)[C@H](O)CNC4CC4)cc13)N(C)S(=O)(=O)CC2

>  <measurement>
2.41

$$$$

###

# measurement-target: Beta-secretase 1 (Homo sapiens, UniProt P56817)
# Sequence (P56817 whole entry): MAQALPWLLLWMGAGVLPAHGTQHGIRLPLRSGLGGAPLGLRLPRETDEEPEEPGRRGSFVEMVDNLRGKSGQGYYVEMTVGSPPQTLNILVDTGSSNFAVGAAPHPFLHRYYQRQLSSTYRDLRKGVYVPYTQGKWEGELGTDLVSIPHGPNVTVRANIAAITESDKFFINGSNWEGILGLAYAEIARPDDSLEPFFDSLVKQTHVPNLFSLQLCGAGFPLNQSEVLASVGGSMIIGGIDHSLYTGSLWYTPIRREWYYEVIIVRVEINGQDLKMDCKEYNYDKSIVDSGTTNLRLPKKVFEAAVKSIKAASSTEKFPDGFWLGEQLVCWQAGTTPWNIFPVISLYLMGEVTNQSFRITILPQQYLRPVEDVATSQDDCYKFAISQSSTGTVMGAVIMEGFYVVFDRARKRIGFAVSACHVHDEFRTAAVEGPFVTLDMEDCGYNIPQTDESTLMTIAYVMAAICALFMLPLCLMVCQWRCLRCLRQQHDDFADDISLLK
# measurement-protocol: Inhibition of BACE1
Response field label: string, one of YES (IC50 strictly below 50 nM) or NO.

>  <smiles-data>
CCn1cc2c3c(cc(C(=O)N[C@@H](Cc4ccccc4)[C@H](O)CNCC(F)(F)F)cc31)N(C)S(=O)(=O)CC2

>  <class-assignment>
NO

$$$$
>  <smiles-data>
CCc1cn2c3c(cc(C(=O)N[C@@H](Cc4ccccc4)[C@H](O)CNCCC(F)(F)F)cc13)N(C)S(=O)(=O)CC2

>  <class-assignment>
YES

$$$$
>  <smiles-data>
CCNC[C@@H](O)[C@H](Cc1ccccc1)NC(=O)c1cc2c3c(c1)c(CC)cn3CCS(=O)(=O)N2C

>  <class-assignment>
YES

$$$$
>  <smiles-data>
CCn1cc2c3c(cc(C(=O)N[C@@H](Cc4ccccc4)[C@H](O)CNC4CCOCC4)cc31)N(C)S(=O)(=O)CC2

>  <class-assignment>
YES

$$$$
>  <smiles-data>
CCCNC[C@@H](O)[C@H](Cc1ccccc1)NC(=O)c1cc2c3c(cn(CC)c3c1)CCS(=O)(=O)N2C

>  <class-assignment>
YES

$$$$
>  <smiles-data>
C#CCNC[C@@H](O)[C@H](Cc1ccccc1)NC(=O)c1cc2c3c(cn(CC)c3c1)CCS(=O)(=O)N2C

>  <class-assignment>
YES

$$$$
>  <smiles-data>
CCn1cc2c3c(cc(C(=O)N[C@@H](Cc4ccccc4)[C@H](O)CNCC(F)F)cc31)N(C)S(=O)(=O)CC2

>  <class-assignment>
YES

$$$$
>  <smiles-data>
C#CCNC[C@@H](O)[C@H](Cc1ccccc1)NC(=O)c1cc2c3c(c1)c(CC)cn3CCS(=O)(=O)O2

>  <class-assignment>
NO

$$$$

###

# measurement-protocol: Ratio of steady sate drug level in brain to blood of wild type mouse expressing mdr1a/b
# Type: ADME, tissue-based
Item-by-item account of Kp

>  <smiles-data>
CCc1cn2c3c(cc(C(=O)N[C@@H](Cc4ccccc4)[C@H](O)CNC4CC4)cc13)N(C)S(=O)(=O)CC2

>  <Kp>
0.13

$$$$
>  <smiles-data>
CCn1cc2c3c(cc(C(=O)N[C@@H](Cc4ccccc4)[C@H](O)CNCCC(F)(F)F)cc31)N(C)S(=O)(=O)CC2

>  <Kp>
0.1

$$$$

###

# measurement-protocol: Volume of distribution in dog at 1 mg/kg/hr, iv
# Type: ADME, organism-based, Canis lupus familiaris
# Parameters: route intravenous
# measurement-setup: in vivo

>  <smiles-data>
CCn1cc2c3c(cc(C(=O)N[C@@H](Cc4ccccc4)[C@H](O)CNCCC(F)(F)F)cc31)N(C)S(=O)(=O)CC2

>  <Vd, L/kg>
4.8

$$$$

###

Consider compounds characterized by their log10(IC50) with UniProtKB Q9Y5Z0.
Sequence (Q9Y5Z0 whole entry): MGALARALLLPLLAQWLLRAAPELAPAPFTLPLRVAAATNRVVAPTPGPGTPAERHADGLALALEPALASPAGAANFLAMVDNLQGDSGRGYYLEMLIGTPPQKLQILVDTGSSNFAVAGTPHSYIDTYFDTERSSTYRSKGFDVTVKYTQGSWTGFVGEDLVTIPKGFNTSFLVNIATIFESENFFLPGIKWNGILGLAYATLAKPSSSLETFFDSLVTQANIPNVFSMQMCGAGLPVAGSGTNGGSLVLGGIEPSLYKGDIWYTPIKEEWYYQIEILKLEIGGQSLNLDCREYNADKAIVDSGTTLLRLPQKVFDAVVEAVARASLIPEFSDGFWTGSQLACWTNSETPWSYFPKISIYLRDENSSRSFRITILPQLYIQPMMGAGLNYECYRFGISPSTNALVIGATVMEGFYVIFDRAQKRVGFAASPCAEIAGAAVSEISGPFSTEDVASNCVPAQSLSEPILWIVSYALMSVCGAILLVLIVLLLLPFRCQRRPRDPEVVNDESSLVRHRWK
property-name: log10(IC50) (log10 of the value in µM)

>  <smiles-data>
CCc1cn2c3c(cc(C(=O)N[C@@H](Cc4ccccc4)[C@H](O)CN[C@H](C)CC)cc13)N(C)S(=O)(=O)CC2

>  <log10(IC50)>
-0.37

$$$$
>  <smiles-data>
CC[C@@H](C)NC[C@@H](O)[C@H](Cc1ccccc1)NC(=O)c1cc2c3c(cn(CC)c3c1)CCS(=O)(=O)N2C

>  <log10(IC50)>
-0.38

$$$$
>  <smiles-data>
C#CCNC[C@@H](O)[C@H](Cc1ccccc1)NC(=O)c1cc2c3c(c1)c(CC)cn3CCS(=O)(=O)O2

>  <log10(IC50)>
0.51

$$$$
>  <smiles-data>
CCn1cc2c3c(cc(C(=O)N[C@@H](Cc4ccccc4)[C@H](O)CNCCC(F)(F)F)cc31)N(C)S(=O)(=O)CC2

>  <log10(IC50)>
-1.12

$$$$
>  <smiles-data>
CCNC[C@@H](O)[C@H](Cc1ccccc1)NC(=O)c1cc2c3c(cn(CC)c3c1)CCS(=O)(=O)N2C

>  <log10(IC50)>
0.34

$$$$
>  <smiles-data>
C#CCNC[C@@H](O)[C@H](Cc1ccccc1)NC(=O)c1cc2c3c(c1)c(CC)cn3CCS(=O)(=O)N2C

>  <log10(IC50)>
0.49

$$$$
>  <smiles-data>
CCc1cn2c3c(cc(C(=O)N[C@@H](Cc4ccccc4)[C@H](O)CNCC4CCOCC4)cc13)OS(=O)(=O)CC2

>  <log10(IC50)>
-0.35

$$$$
>  <smiles-data>
CCc1cn2c3c(cc(C(=O)N[C@@H](Cc4ccccc4)[C@H](O)CNC4CC4)cc13)OS(=O)(=O)CC2

>  <log10(IC50)>
0.06

$$$$
>  <smiles-data>
C#CCNC[C@@H](O)[C@H](Cc1ccccc1)NC(=O)c1cc2c3c(cn(CC)c3c1)CCS(=O)(=O)N2C

>  <log10(IC50)>
0.17

$$$$

###

# measurement-protocol: Blood clearance in wild type mouse expressing mdr1a/b by HPLC analysis
# Type: ADME, organism-based
property-name: clearance (mL/min/kg)

>  <smiles-data>
CCn1cc2c3c(cc(C(=O)N[C@@H](Cc4ccccc4)[C@H](O)CNCCC(F)(F)F)cc31)N(C)S(=O)(=O)CC2

>  <measurement>
85

$$$$
>  <smiles-data>
CCc1cn2c3c(cc(C(=O)N[C@@H](Cc4ccccc4)[C@H](O)CNC4CC4)cc13)N(C)S(=O)(=O)CC2

>  <measurement>
72

$$$$

###

# measurement-protocol: Blood clearance in rat at 1 mg/kg/hr, iv
# Assay type: ADME, organism-based
# Set-up: route intravenous
property-name: clearance (mL/min/kg)

>  <smiles-data>
CCn1cc2c3c(cc(C(=O)N[C@@H](Cc4ccccc4)[C@H](O)CNCCC(F)(F)F)cc31)N(C)S(=O)(=O)CC2

>  <property-name>
clearance

>  <units-text>
mL/min/kg

>  <measurement>
57

$$$$

###

# System: Brain
# measurement-protocol: Steady sate drug level in brain of mdr1a/b knockout mouse by HPLC analysis
# Type: ADME, tissue-based
# measurement-setup: in vivo, read-out: Css

>  <smiles-data>
CCc1cn2c3c(cc(C(=O)N[C@@H](Cc4ccccc4)[C@H](O)CNC4CC4)cc13)N(C)S(=O)(=O)CC2

>  <measurement-target>
Brain

>  <concentration>
989 nM

$$$$
>  <smiles-data>
CCn1cc2c3c(cc(C(=O)N[C@@H](Cc4ccccc4)[C@H](O)CNCCC(F)(F)F)cc31)N(C)S(=O)(=O)CC2

>  <measurement-target>
Brain

>  <concentration>
335 nM

$$$$

###

# measurement-protocol: Bioavailability in dog
# Type: ADME, organism-based, Canis lupus familiaris
# measurement-setup: in vivo

>  <smiles-data>
CCn1cc2c3c(cc(C(=O)N[C@@H](Cc4ccccc4)[C@H](O)CNCCC(F)(F)F)cc31)N(C)S(=O)(=O)CC2

>  <units-text>
%

>  <bioavailability>
52

$$$$

###

# measurement-protocol: Blood clearance in mdr1a/b knockout mouse by HPLC analysis
# Type: ADME, organism-based

>  <smiles-data>
CCc1cn2c3c(cc(C(=O)N[C@@H](Cc4ccccc4)[C@H](O)CNC4CC4)cc13)N(C)S(=O)(=O)CC2

>  <clearance>
62 mL/min/kg

$$$$
>  <smiles-data>
CCn1cc2c3c(cc(C(=O)N[C@@H](Cc4ccccc4)[C@H](O)CNCCC(F)(F)F)cc31)N(C)S(=O)(=O)CC2

>  <clearance>
94 mL/min/kg

$$$$

###

Item-by-item account of IC50
# measurement-target: UniProtKB P56817
# measurement-protocol: Inhibition of BACE1 in human SHSY5Y cells expressing wild type APP assessed as inhibition of intracellular amyloid beta-40 secretion
# Format: cell-based, SH-SY5Y
property-name: IC50 (nM)

>  <smiles-data>
C#CCNC[C@@H](O)[C@H](Cc1ccccc1)NC(=O)c1cc2c3c(c1)c(CC)cn3CCS(=O)(=O)N2C

>  <measurement>
118

$$$$
>  <smiles-data>
CCn1cc2c3c(cc(C(=O)N[C@@H](Cc4ccccc4)[C@H](O)CNCC(F)(F)C(F)(F)F)cc31)N(C)S(=O)(=O)CC2

>  <measurement>
4430

$$$$
>  <smiles-data>
CCc1cn2c3c(cc(C(=O)N[C@@H](Cc4ccccc4)[C@H](O)CNCCF)cc13)N(C)S(=O)(=O)CC2

>  <measurement>
209

$$$$
>  <smiles-data>
C#CCNC[C@@H](O)[C@H](Cc1ccccc1)NC(=O)c1cc2c3c(cn(CC)c3c1)CCS(=O)(=O)N2C

>  <measurement>
26

$$$$
>  <smiles-data>
CCCNC[C@@H](O)[C@H](Cc1ccccc1)NC(=O)c1cc2c3c(cn(CC)c3c1)CCS(=O)(=O)N2C

>  <measurement>
29

$$$$
>  <smiles-data>
CCNC[C@@H](O)[C@H](Cc1ccccc1)NC(=O)c1cc2c3c(c1)c(CC)cn3CCS(=O)(=O)N2C

>  <measurement>
262

$$$$
>  <smiles-data>
CCc1cn2c3c(cc(C(=O)N[C@@H](Cc4ccccc4)[C@H](O)CNC4CCOCC4)cc13)N(C)S(=O)(=O)CC2

>  <measurement>
90

$$$$
>  <smiles-data>
CCn1cc2c3c(cc(C(=O)N[C@@H](Cc4ccccc4)[C@H](O)CNC4CCOCC4)cc31)N(C)S(=O)(=O)CC2

>  <measurement>
27

$$$$
